# TARGET OR SYSTEM: human delta-like ligand 3 (DLL3) on SHP77 cells (human) (UniProt Q9NYJ7)
# Sequence (Q9NYJ7 27-618, stated change not applied): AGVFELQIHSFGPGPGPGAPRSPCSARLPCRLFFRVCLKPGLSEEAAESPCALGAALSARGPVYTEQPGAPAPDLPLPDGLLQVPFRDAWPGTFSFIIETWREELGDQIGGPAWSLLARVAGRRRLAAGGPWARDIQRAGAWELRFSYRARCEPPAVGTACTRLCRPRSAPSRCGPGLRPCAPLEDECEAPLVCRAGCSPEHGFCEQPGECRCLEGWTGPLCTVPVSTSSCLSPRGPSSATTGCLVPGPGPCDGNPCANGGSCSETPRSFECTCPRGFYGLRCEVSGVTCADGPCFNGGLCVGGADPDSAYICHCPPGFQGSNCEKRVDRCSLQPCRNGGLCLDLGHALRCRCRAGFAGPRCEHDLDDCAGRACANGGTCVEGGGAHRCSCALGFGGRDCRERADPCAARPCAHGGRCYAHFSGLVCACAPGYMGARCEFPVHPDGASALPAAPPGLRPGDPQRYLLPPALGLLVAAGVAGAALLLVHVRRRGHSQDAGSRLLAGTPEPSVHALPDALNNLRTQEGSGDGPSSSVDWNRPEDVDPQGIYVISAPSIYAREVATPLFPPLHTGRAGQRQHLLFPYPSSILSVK
# PROTOCOL TEXT: FACS on SHP77 cells
EXPERIMENTAL ENDPOINT: MFI at 0.16 nM (MFI)
A number alone suffices; assume MFI.

Query: MFI at 0.16 nM; subject: Hab009VL1aVH1-hFc (scFv, part only; not given: scFv linker and human IgG1 Fc, V domains shown, not shown: another chain or arm of the molecule; a dimerising Fc or GST; small tags and cut ends) VL: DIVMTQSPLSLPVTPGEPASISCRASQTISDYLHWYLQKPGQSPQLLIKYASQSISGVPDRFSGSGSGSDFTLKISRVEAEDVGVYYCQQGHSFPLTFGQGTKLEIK VH: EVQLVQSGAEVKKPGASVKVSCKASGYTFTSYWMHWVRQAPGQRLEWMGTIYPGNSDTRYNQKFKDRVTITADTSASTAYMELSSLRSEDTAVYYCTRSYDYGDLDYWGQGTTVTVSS
430

Query: MFI at 0.16 nM; subject: Hab008L1H5-hFc (scFv, part only; not given: VL-VH linker and human IgG1 Fc, V domains shown, not shown: another chain or arm of the molecule; a dimerising Fc or GST; small tags and cut ends) VL: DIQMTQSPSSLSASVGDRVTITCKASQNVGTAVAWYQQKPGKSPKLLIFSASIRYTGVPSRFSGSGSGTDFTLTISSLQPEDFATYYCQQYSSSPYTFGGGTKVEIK VH: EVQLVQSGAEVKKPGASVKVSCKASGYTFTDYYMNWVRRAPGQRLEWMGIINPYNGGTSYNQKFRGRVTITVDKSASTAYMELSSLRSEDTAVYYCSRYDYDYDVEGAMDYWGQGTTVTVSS
139

Query: MFI at 0.16 nM; subject: Hab015VL5VH5a-hFc (scFv, part only; not given: scFv linker and human IgG1 Fc, V domains shown, not shown: another chain or arm of the molecule; a dimerising Fc or GST; small tags and cut ends) VL: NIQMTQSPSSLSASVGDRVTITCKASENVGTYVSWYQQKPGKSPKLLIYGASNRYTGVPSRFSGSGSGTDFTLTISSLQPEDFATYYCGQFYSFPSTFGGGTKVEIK VH: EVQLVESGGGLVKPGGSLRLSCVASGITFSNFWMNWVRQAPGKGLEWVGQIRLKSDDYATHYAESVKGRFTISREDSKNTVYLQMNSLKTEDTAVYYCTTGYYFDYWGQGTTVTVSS
405
